biological target: Cytochrome P450 2C9 (Homo sapiens); assay: qHTS Assay for Inhibitors and Substrates of Cytochrome P450 2C9 (AID 883); settings: recombinant CYP2C9, luciferin-H luminescence, 60 min; series mostly up to 57.1 µM; also: nearly all actives have a fitted effect of over 60% in size; also: potency is read from the fitted curve at half-maximal effect
Records with an inconclusive call do not appear. Calls of active or inactive are those of the source. Calls follow the shape of the dose curve; as a rule, active = well fitted inhibition curve with a large enough effect; inconclusive = small, poorly fitted or top-dose-only effect; inactive = no such curve, though single readings can be large or run the other way.
measuredMetric: Potency

CC(=O)Oc1cc(OC(C)=O)c2c(=O)cc(-c3ccc(OC(C)=O)c(OC(C)=O)c3)oc2c1 | inactive
CC(C)C[C@@H](CC(=O)N[C@H](CC(=O)N[C@@H]1CCCC[C@H]1C(=O)N[C@H](CC(=O)N[C@@H](CCC(=O)O)CC(=O)O)CC(C)C)C(C)C)NC(=O)[C@@H]1CNCC[C@H]1N | inactive
COc1cc([C@H]2c3cc4c(cc3[C@@H](O)[C@@H]3COC(=O)[C@H]23)OCO4)cc(OC)c1OC | 6.31 µM (active)
NCCC[C@@H](CC(=O)N[C@@H]1CCNC[C@H]1C(=O)N[C@H](CC(=O)N[C@@H](CCC(=O)O)CC(=O)O)Cc1ccccc1)NC(=O)C[C@H](Cc1c[nH]c2ccccc12)NC(=O)[C@@H]1CNCC[C@H]1N | inactive
CC(C)[C@@H](CC(=O)N[C@@H]1CCCC[C@H]1C(=O)N[C@H](CC(=O)N[C@@H](CCC(=O)O)CC(=O)O)Cc1c[nH]c2ccccc12)NC(=O)C[C@H](Cc1c[nH]c2ccccc12)NC(=O)[C@@H]1CCCC[C@H]1N | inactive
CCC/C=C(\CCC)C(NS(=O)(=O)c1cccc2cccnc12)c1ccc(C(=O)OC)cc1 (configuration not stated) | 1.58 µM (active)
CC(C)[C@@H](CC(=O)N[C@@H]1CCNC[C@H]1C(=O)N[C@H](CC(=O)N[C@@H](CCC(=O)O)CC(=O)O)Cc1ccccc1)NC(=O)C[C@H](Cc1c[nH]c2ccccc12)NC(=O)[C@@H]1CCCC[C@H]1N | inactive
COC(=O)[C@@]1(Cc2ccccc2)[C@H]2c3cc(C(=O)N4CCCC4)n(Cc4cc(F)cc5c4OCOC5)c3C[C@H]2CN1C(=O)c1ccccc1 | 0.316 µM (active)
COC(=O)[C@@]1(Cc2ccc(F)cc2)[C@H]2c3cc(C(=O)N4CCCC4)n(Cc4ccc(C)o4)c3C[C@H]2CN1C(=O)c1ccccc1 | 3.98 µM (active)
C/C(=C\CNc1ncnc2c1ncn2[C@@H]1O[C@@H](CO)[C@@H](O)[C@H]1O)CO | inactive

Need Potency, item `COc1ccc(OC)c([C@H]2Nc3ccccc3NC3=C2C(=O)CC(C)(C)C3)c1Br`
31.6 µM (active)

Need Potency, item `O[C@@H]1CC[C@H]2Cc3ccccc3N=C21`
inactive

Need Potency, item `COC(=O)[C@@]1(Cc2ccc(F)cc2)[C@H]2c3cc(C(=O)N4CCCC4)n(CCc4ccc(O)c(O)c4)c3C[C@H]2CN1C(=O)c1ccccc1`
3.16 µM (active)

Need Potency, item `O=c1cc(-c2ccccc2)oc2cc(O[C@H]3O[C@H](CO)[C@@H](O)[C@H](O)[C@@H]3O)c(O)c(O)c12`
inactive

Need Potency, item CCC[C@@H]1C[C@@]1(CCC)C(NS(=O)(=O)c1cccc2cccnc12)c1ccc(Cl)cc1 (some centres not stated)
7.94 µM (active)

Need Potency, item CCCC[C@@H]1C[C@H]1C(NC(=O)c1cccs1)c1ccc(C(F)(F)F)cc1 (some centres not stated)
1.58 µM (active)

Need Potency, item `Nc1ccccc1C(=O)C[C@@H](N)C(=O)O`
inactive

Need Potency, item `CN1CCc2cc3c(cc2C(=O)Cc2ccc4c(c2C1)OCO4)OCO3`
inactive

Need Potency, item `CC(C)C[C@@H](CC(=O)N[C@@H](CCC(=O)O)CC(=O)O)NC(=O)[C@@H]1CNCC[C@H]1NC(=O)C[C@@H](NC(=O)C[C@H](CO)NC(=O)[C@@H]1CCCC[C@H]1N)C(C)C`
inactive

Need Potency, item `COc1ccc2oc(-c3ccc(O)cc3)cc(=O)c2c1`
2.51 µM (active)

Need Potency, item `CC(C)C[C@@H](CC(=O)N[C@@H](CCC(=O)O)CC(=O)O)NC(=O)[C@@H]1CCCC[C@H]1NC(=O)C[C@H](CCCN)NC(=O)C[C@H](CO)NC(=O)[C@@H]1CCCC[C@H]1N`
inactive

Need Potency, item `COc1ccc(-c2coc3ccc(O[C@@H]4O[C@@H](COC(C)=O)[C@@H](OC(C)=O)[C@@H](OC(C)=O)[C@H]4OC(C)=O)c(OC(C)=O)c3c2=O)cc1`
inactive

Need Potency, item `Cc1cc(C(=O)N[C@@H](c2ccccc2)[C@]2(C)C[C@H]2[C@@H](C)C(=O)Nc2ccc3ccccc3c2)n(C)n1`
3.98 µM (active)

Need Potency, item `CC(C)C[C@@H](CC(=O)N[C@@H](CCC(=O)O)CC(=O)O)NC(=O)[C@@H]1CCCC[C@H]1NC(=O)C[C@@H](NC(=O)C[C@H](Cc1ccccc1)NC(=O)[C@@H]1CNCC[C@H]1N)C(C)C`
inactive

Need Potency, item `CC(C)C[C@@H](CC(=O)N[C@@H](CCC(=O)O)CC(=O)O)NC(=O)[C@@H]1CNCC[C@H]1NC(=O)C[C@H](CCCN)NC(=O)C[C@H](Cc1ccccc1)NC(=O)[C@@H]1CNCC[C@H]1N`
inactive

Need Potency, item `CC(C)C[C@@H](CC(=O)N[C@@H](CCCN)CC(=O)N[C@@H]1CCCC[C@H]1C(=O)N[C@H](CC(=O)N[C@@H](CCC(=O)O)CC(=O)O)CC(C)C)NC(=O)[C@@H]1CCCC[C@H]1N`
inactive

Need Potency, item `COc1ccc2oc(-c3ccccc3)c(OC)c(=O)c2c1`
25.1 µM (active)
